Measured log10 of MIC, listed per entry.
Tested on: Aspergillus oryzae
experimentalDetails: Antifungal activity against Aspergillus oryzae NCIM 643 after 48 hrs by agar well diffusion assay
Format: functional
conditionSummary: NCIM 643, 48 h
Please interpret these as log10 of MIC where MIC is in µg/mL.

smilesRecord: C=CCOc1ccc(/C=C/C(=O)c2ccccc2NC(=O)NS(=O)(=O)c2ccc(C)cc2)cc1
testTarget: Aspergillus oryzae
dataValue: 1.20
//
smilesRecord: CCOc1cc(/C=C/C(=O)c2ccccc2NC(=O)NS(=O)(=O)c2ccc(C)cc2)ccc1O
testTarget: Aspergillus oryzae
dataValue: 2.71
//
smilesRecord: Cc1ccc(S(=O)(=O)NC(=O)Nc2ccccc2C(=O)/C=C/c2ccc[nH]2)cc1
testTarget: Aspergillus oryzae
dataValue: 2.41
//
smilesRecord: Cc1ccc(S(=O)(=O)NC(=O)Nc2ccccc2C(=O)/C=C/c2ccccc2O)cc1
testTarget: Aspergillus oryzae
dataValue: 2.41
//
smilesRecord: Cc1ccc(S(=O)(=O)NC(=O)Nc2ccccc2C(=O)/C=C/c2ccc(F)cc2)cc1
testTarget: Aspergillus oryzae
dataValue: 1.81

[ask] // log10 of MIC lookup, key: Cc1ccc(S(=O)(=O)NC(=O)Nc2ccccc2C(=O)/C=C/c2cccc(Br)c2)cc1
[reply] 2.11

* * *

Tested on: Candida albicans
experimentalDetails: Antifungal activity against Candida albicans NCIM 3102 after 48 hrs by agar well diffusion assay
Format: functional
conditionSummary: NCIM 3102, 48 h
Quick list: MIC per entry.
Report the figure in µg/mL without appending any unit label.

Known MIC results, listed for orientation:
smilesRecord: Cc1ccc(S(=O)(=O)NC(=O)Nc2ccccc2C(=O)/C=C/C=C/c2ccccc2)cc1
MIC [µg/mL]: 256
//
smilesRecord: Cc1ccc(S(=O)(=O)NC(=O)Nc2ccccc2C(=O)/C=C/c2ccc(Cl)cc2Cl)cc1
MIC [µg/mL]: 64
//
smilesRecord: Cc1ccc(S(=O)(=O)NC(=O)Nc2ccccc2C(=O)/C=C/c2ccc[nH]2)cc1
MIC [µg/mL]: 256

[ask] Which MIC is listed for COc1ccc(/C=C/C(=O)c2ccccc2NC(=O)NS(=O)(=O)c2ccc(C)cc2)c(OC)c1 ?
[reply] 128

[ask] Record request: MIC value, item Cc1ccc(S(=O)(=O)NC(=O)Nc2ccccc2C(=O)/C=C/c2ccccc2[N+](=O)[O-])cc1
[reply] 16

* * *

Tested on: Escherichia coli
experimentalDetails: Antibacterial activity against Escherichia coli NCIM 2065 after 24 hrs by agar well diffusion assay
Assay type: functional
conditionSummary: NCIM 2065, 24 h
parameterMeasured: MIC (µg/mL)
Record the value in µg/mL, omitting the unit from your answer.

Guide cases for MIC, answers given:
smilesRecord: COc1cccc(/C=C/C(=O)c2ccccc2NC(=O)NS(=O)(=O)c2ccc(C)cc2)c1
MIC / µg/mL: 128
//
smilesRecord: Cc1ccc(S(=O)(=O)NC(=O)Nc2ccccc2C(=O)/C=C/c2ccccc2)cc1
MIC / µg/mL: 512
//
smilesRecord: Cc1ccc(S(=O)(=O)NC(=O)Nc2ccccc2C(=O)/C=C/c2ccccc2[N+](=O)[O-])cc1
MIC / µg/mL: 32
//
smilesRecord: Cc1ccc(S(=O)(=O)NC(=O)Nc2ccccc2C(=O)/C=C/c2ccccc2O)cc1
MIC / µg/mL: 512
//
smilesRecord: Cc1ccc(S(=O)(=O)NC(=O)Nc2ccccc2C(=O)/C=C/c2cccnc2)cc1
MIC / µg/mL: 128

[ask] Record lookup: for Escherichia coli, what MIC belongs to Cc1ccc(S(=O)(=O)NC(=O)Nc2ccccc2C(=O)/C=C/c2ccccc2Cl)cc1 ?
[reply] 64

[ask] Give MIC (Escherichia coli) of the following molecule: COc1ccc(/C=C/C(=O)c2ccccc2NC(=O)NS(=O)(=O)c2ccc(C)cc2)c(OC)c1
[reply] 32

[ask] What is its MIC for Escherichia coli? Entry: Cc1ccc(S(=O)(=O)NC(=O)Nc2ccccc2C(=O)/C=C/c2ccncc2)cc1
[reply] 64

[ask] Test system Escherichia coli; read-out MIC; what value for Cc1ccc(S(=O)(=O)NC(=O)Nc2ccccc2C(=O)/C=C/c2ccc(O)cc2)cc1 ?
[reply] 128

* * *

System: Penicillium chrysogenum
experimentalDetails: Antifungal activity against Penicillium chrysogenum NCIM 738 after 48 hrs by agar well diffusion assay
Format: functional
conditionSummary: NCIM 738, 48 h
parameterMeasured: MIC

Here are 6 molecules together with their reported answers.
molecule: Cc1ccc(S(=O)(=O)NC(=O)Nc2ccccc2C(=O)/C=C/c2ccc(O)cc2)cc1
dataValue: 128 µg/mL
--
molecule: CCOc1cc(/C=C/C(=O)c2ccccc2NC(=O)NS(=O)(=O)c2ccc(C)cc2)ccc1O
dataValue: 512 µg/mL
--
molecule: Cc1ccc(S(=O)(=O)NC(=O)Nc2ccccc2C(=O)/C=C/c2cccc([N+](=O)[O-])c2)cc1
dataValue: 256 µg/mL
--
molecule: Cc1ccc(S(=O)(=O)NC(=O)Nc2ccccc2C(=O)/C=C/c2ccccc2O)cc1
dataValue: 256 µg/mL
--
molecule: Cc1ccc(S(=O)(=O)NC(=O)Nc2ccccc2C(=O)/C=C/c2cc(O)ccc2[N+](=O)[O-])cc1
dataValue: 64 µg/mL
--
molecule: Cc1ccc(S(=O)(=O)NC(=O)Nc2ccccc2C(=O)/C=C/c2ccc(Cl)cc2)cc1
dataValue: 64 µg/mL

[ask] // query MIC value for entry COc1ccc(/C=C/C(=O)c2ccccc2NC(=O)NS(=O)(=O)c2ccc(C)cc2)cc1
[reply] 128 µg/mL

[ask] Form field: reported MIC of Cc1ccc(S(=O)(=O)NC(=O)Nc2ccccc2C(=O)/C=C/c2ccc(N(C)C)cc2)cc1
[reply] 256 µg/mL

[ask] Given Cc1ccc(S(=O)(=O)NC(=O)Nc2ccccc2C(=O)/C=C/c2ccccc2[N+](=O)[O-])cc1 , state its recorded MIC.
[reply] 16 µg/mL

[ask] Which measured MIC value corresponds to Cc1ccc(S(=O)(=O)NC(=O)Nc2ccccc2C(=O)/C=C/c2ccc(Cl)cc2Cl)cc1 ?
[reply] 64 µg/mL

[ask] I'd like to know its MIC. The molecule in question is COc1cc(/C=C/C(=O)c2ccccc2NC(=O)NS(=O)(=O)c2ccc(C)cc2)ccc1O
[reply] 128 µg/mL

* * *

System: Escherichia coli
experimentalDetails: Antibacterial activity against Escherichia coli NCIM 2065 after 24 hrs by agar well diffusion assay
Type: functional
conditionSummary: NCIM 2065, 24 h
parameterMeasured: log10 of MIC (log10 of the value in µg/mL)
Note the log scale: values are log10 of MIC expressed in µg/mL.

Solved cases (5 shown):
smilesRecord: COc1ccc(/C=C/C(=O)c2ccccc2NC(=O)NS(=O)(=O)c2ccc(C)cc2)cc1
log10 of MIC: 2.11
--
smilesRecord: COc1ccc(/C=C/C(=O)c2ccccc2NC(=O)NS(=O)(=O)c2ccc(C)cc2)cc1OC
log10 of MIC: 1.81
--
smilesRecord: Cc1ccc(S(=O)(=O)NC(=O)Nc2ccccc2C(=O)/C=C/c2cccc(Br)c2)cc1
log10 of MIC: 1.20
--
smilesRecord: Cc1ccc(/C=C/C(=O)c2ccccc2NC(=O)NS(=O)(=O)c2ccc(C)cc2)cc1
log10 of MIC: 2.41
--
smilesRecord: C=CCOc1ccc(/C=C/C(=O)c2ccccc2NC(=O)NS(=O)(=O)c2ccc(C)cc2)cc1
log10 of MIC: 1.51

[ask] Give its log10 of MIC value. Item: Cc1ccc(S(=O)(=O)NC(=O)Nc2ccccc2C(=O)/C=C/c2cccc(F)c2)cc1
[reply] 1.20

[ask] Record request: log10 of MIC value, item Cc1ccc(S(=O)(=O)NC(=O)Nc2ccccc2C(=O)/C=C/c2ccc(Cl)cc2Cl)cc1
[reply] 1.51

[ask] For Cc1ccc(S(=O)(=O)NC(=O)Nc2ccccc2C(=O)/C=C/c2cccc(O)c2)cc1 , what is its reported log10 of MIC?
[reply] 2.71

* * *

Tested on: Candida albicans
experimentalDetails: Antifungal activity against Candida albicans NCIM 3102 after 48 hrs by agar well diffusion assay
Type: functional
conditionSummary: NCIM 3102, 48 h
List of MIC values.
Entry format: amount then unit.

smilesRecord: Cc1ccc(S(=O)(=O)NC(=O)Nc2ccccc2C(=O)/C=C/c2cc(O)ccc2[N+](=O)[O-])cc1
testTarget: Candida albicans
MIC: 32 µg/mL

[ask] Recorded MIC for COc1ccc(/C=C/C(=O)c2ccccc2NC(=O)NS(=O)(=O)c2ccc(C)cc2)cc1 , please?
[reply] 128 µg/mL

[ask] Would you mind telling me what MIC value was observed for COc1cc(/C=C/C(=O)c2ccccc2NC(=O)NS(=O)(=O)c2ccc(C)cc2)ccc1O ?
[reply] 128 µg/mL

[ask] Given the compound Cc1ccc(S(=O)(=O)NC(=O)Nc2ccccc2C(=O)/C=C/c2c3ccccc3cc3ccccc23)cc1 , what is its reported MIC?
[reply] 512 µg/mL

[ask] Reported MIC, compound C=CCOc1ccc(/C=C/C(=O)c2ccccc2NC(=O)NS(=O)(=O)c2ccc(C)cc2)cc1 : ____
[reply] 16 µg/mL

[ask] Entry Cc1ccc(/C=C/C(=O)c2ccccc2NC(=O)NS(=O)(=O)c2ccc(C)cc2)cc1 : reported MIC = ?
[reply] 256 µg/mL
